Reported mortality values are given for each entry in this list.
Experiment: Percentage toxicity measured as death of mice.
Format: organism-based
Set-up: concentration or dose not given beside the values
Details: mouse, in vivo; read-out: Death

[
  {
    "COMPOUND": "CCN(CC)CCCN1C(=O)CC2(CCCc3ccccc32)C1=O (stereo unspecified)",
    "mortality, %": 0
  },
  {
    "COMPOUND": "CCN(CC)CC(=O)Nc1c(C)cccc1C",
    "mortality, %": 0
  },
  {
    "COMPOUND": "CCN(CC)CCCCN1C(=O)CC2(CCCc3ccc(OC)cc32)C1=O (stereo unspecified)",
    "mortality, %": 0
  },
  {
    "COMPOUND": "CCN(CC)CCCN1C(=O)CC2(CCCc3ccc(OC(C)C)cc32)C1=O (stereo unspecified)",
    "mortality, %": 0
  },
  {
    "COMPOUND": "CN(C)CCCCN1C(=O)CC2(CCCc3ccc(O)cc32)C1=O (stereo unspecified)",
    "mortality, %": 0
  },
  {
    "COMPOUND": "CCN(CC)CCCCN1C(=O)CC2(CCCc3ccc(O)cc32)C1=O (stereo unspecified)",
    "mortality, %": 0
  },
  {
    "COMPOUND": "CCN(CC)C(C)CCN1C(=O)CC2(CCCc3ccccc32)C1=O (stereo unspecified)",
    "mortality, %": 0
  },
  {
    "COMPOUND": "O=C1NC(=O)C(C2CCc3ccccc3C2)N1 (stereo unspecified)",
    "mortality, %": 0
  },
  {
    "COMPOUND": "CCN(CC)C(C)CN1C(=O)CC2(CCCc3ccc(O)cc32)C1=O (stereo unspecified)",
    "mortality, %": 0
  },
  {
    "COMPOUND": "CN(CCO)CCCN1C(=O)CC2(CCCc3ccccc32)C1=O (stereo unspecified)",
    "mortality, %": 0
  },
  {
    "COMPOUND": "CCN(CC)CCN1C(=O)CC2(CCCc3ccc(O)cc32)C1=O (stereo unspecified)",
    "mortality, %": 0
  }
]

----------
Species on record: Mus musculus
Experiment: Percentage toxicity measured as loss of righting reflex.
Format: organism-based
Details: in vivo
QUANTITY_MEASURED: Loss of righting reflex (%)

[
  {
    "COMPOUND": "CCN(CC)C(C)CCN1C(=O)CC2(CCCc3ccc(O)cc32)C1=O (stereo not given)",
    "VALUE_REPORTED": 100
  },
  {
    "COMPOUND": "CC(C)Oc1ccc2c(c1)C1(CCC2)CC(=O)N(CCCN(C)C)C1=O (stereo not given)",
    "VALUE_REPORTED": 10
  },
  {
    "COMPOUND": "CCN(CC)C(C)CCN1C(=O)CC2(CCCc3ccccc32)C1=O (stereo not given)",
    "VALUE_REPORTED": 0
  },
  {
    "COMPOUND": "CCN(CC)CCCCN1C(=O)CC2(CCCc3ccc(OC)cc32)C1=O (stereo not given)",
    "VALUE_REPORTED": 0
  },
  {
    "COMPOUND": "CN(CCO)CCCCN1C(=O)CC2(CCCc3ccccc32)C1=O (stereo not given)",
    "VALUE_REPORTED": 0
  },
  {
    "COMPOUND": "CCN(CC)C(C)CN1C(=O)CC2(CCCc3ccc(O)cc32)C1=O (stereo not given)",
    "VALUE_REPORTED": 0
  },
  {
    "COMPOUND": "CN(CCO)CCN1C(=O)CC2(CCCc3ccccc32)C1=O (stereo not given)",
    "VALUE_REPORTED": 0
  },
  {
    "COMPOUND": "CCN(CC)CCCN1C(=O)CC2(CCCc3cc(OC)ccc32)C1=O (stereo not given)",
    "VALUE_REPORTED": 0
  },
  {
    "COMPOUND": "CCN(CC)CCCN1C(=O)CC2(CCCc3ccc(C)cc32)C1=O (stereo not given)",
    "VALUE_REPORTED": 0
  },
  {
    "COMPOUND": "CCN(CC)CCCN1C(=O)CC2(CCCc3ccc(OC(C)C)cc32)C1=O (stereo not given)",
    "VALUE_REPORTED": 0
  }
]
